tested on: Plasmodium falciparum; experiment: GSK_TCMDC: Inhibition of Plasmodium falciparum 3D7 in whole red blood cells, using parasite LDH activity as an index of growth. Test compounds present at 2uM; type: functional
measurement-label: Inhibition (%)
Give just the number in %; leave the unit off.

Recall and state the measured Inhibition for Br.CC(Cc1ccc(SC(C)(C)C)cc1)NCC(O)c1cccc(Cl)c1 (stereo not given) .
99

Output measured Inhibition for this item: COC(=O)c1ccc(CC(C)NCC(O)c2cccc(C(F)(F)F)c2)c(OC)c1 (stereo not given)
100

Fill in reported Inhibition for this entry: "O=C(/C=C/c1ccc(Cl)c(Cl)c1)N1CCC(CN2CCC(c3c(Br)[nH]c4ccccc34)CC2)CC1"
100

Consider the molecule "CN(C)CCCOc1ccc(CN2CCC(c3c[nH]c4ccc(NCC5CCCCC5)cc34)CC2)cc1.O=C(O)C(F)(F)F" . State its measured Inhibition.
99

Supply measured Inhibition of "O=c1n[n+](C2CCCCC2)[n-]o1" in your reply.
91

Given the molecule "C=C[C@H]1CN2CC[C@H]1C[C@H]2[C@H](O)c1cc(/C=C/c2ccc(F)cc2)nc2ccc(OC)cc12.Cl" , write its reported Inhibition.
99

Output Inhibition of COc1cccc(C(=O)C2CC2CN2CC=C(c3c[nH]c4ccc(OC)nc34)CC2)c1 (stereo not given)
94

Consider the molecule "CCCc1cc(O)c2c3c(c(=O)oc2c1)CN(C)CC3" and give its recorded Inhibition.
98

Tell me measured Inhibition for COC(=O)c1ccc(CC(C)NCC(O)c2cccc3ccccc23)cc1 (stereo not given) please.
96

Retrieve Inhibition measured for CC(Cc1ccc(Oc2ccc(Cl)cc2)cc1)NCC(O)c1cccc(Cl)c1 (stereo not given) and print it.
99

Specify reported Inhibition for the molecule shown: "Cc1ccc(C(=O)Nc2ccnc(N(C)C3CCN(Cc4cccc(O)c4)CC3)c2)cn1.O=C(O)C(F)(F)F"
90

Please supply the value of reported Inhibition for the item COC(=O)c1ccc(CC(C)NCC(O)c2cccc(C(F)(F)F)c2)cc1C (stereo not given)
93

State its Inhibition: CC(=O)C1(c2ccccc2)CCN(CCC2(c3ccc(Cl)c(Cl)c3)CN(C(=O)CC(C)C)CCO2)CC1 (stereo not given)
92

Give a short answer stating reported Inhibition for "Cc1cc(C(=O)NC2CCN(CC3(c4ccc(Cl)cc4)CCC3)CC2)on1" .
98

Indicate its recorded Inhibition; the molecule in question is Cc1c(C)c2c(c(C)c1O)CC[C@@](C)(C(=O)NC1CCC(CN3CCC(c4c[nH]c5ccccc45)CC3)CC1)O2 (stereo not given in full)
92

Tell me its Inhibition given "CO/C(=C\C=C\c1cc2cc(Cl)c(Cl)cc2[nH]1)C(=O)N[C@H]1CN2CCC1CC2" as the entry.
82

For the molecule "CC(=O)N(Cc1ccc(-c2ccc(CNCCc3ccccc3)cc2)cc1)C1CCN(Cc2ccccc2)CC1.O=C(O)C(F)(F)F" , give its reported Inhibition.
95

Please give measured Inhibition of the following entry: O=C(NC1CCC(CN2CCC(c3c[nH]c4ccccc34)CC2)CC1)c1ccc(-c2cc(C(F)(F)F)ccc2Cl)o1 (stereo not given)
100

Identify measured Inhibition corresponding to Cc1ccc(CC(C)NCC(O)c2cccc(Cl)c2)cc1F.Cl (stereo not given)
95

Give Inhibition for the following molecule: Cc1ccc2c(C3=CCN(CCCCC4(C)C(=O)Nc5ccccc54)CC3)c(C)[nH]c2c1 (stereo not given)
95

Please report the measured Inhibition for COc1ccc2[nH]cc(C3=CCN(CC4CC4C(=O)c4ccccc4)CC3)c2n1 (stereo not given)
95

Identify measured Inhibition associated with "COc1ccc(C=CC(=O)N2CCC(CN3CCC(c4c[nH]c5ccccc45)CC3)CC2)cc1OC"
94

Note down Inhibition recorded for O=C(NC1CCC(CN2CCC(c3c[nH]c4ccccc34)CC2)CC1)c1cn(Cc2ccccc2)c2ccccc12 (stereo not given)
91

Assign Inhibition to the following record: "Cc1cc(-c2ncc[nH]2)ccc1-c1ccc(C(=O)N2CCc3cc4c(cc32)C2(CCN(C)CC2)CO4)cc1.Cl"
100

For the molecule "CN1CC=C(c2c[nH]c3ccc(Sc4ccccc4)cc23)CC1.O=C(O)/C=C/C(=O)O" , report Inhibition.
98

For the molecule FC(F)(F)c1ccc(NC(=S)NC2CCC(CN3CCC(c4c[nH]c5ccccc45)CC3)CC2)cc1 (stereo not given) , give its measured Inhibition value.
100

State its Inhibition for this molecule: "CC[C@H]1CN2CC[C@@H]1C[C@H]2[C@H](O)c1cc(-c2ccc(F)cc2)nc2ccc(O)cc12.Cl"
99

Retrieve Inhibition measured for "CC[C@H]1C[N+]2([O-])CC[C@@H]1C[C@H]2[C@H](O)c1cc(-c2ccccc2)nc2ccc(OC)cc12" and print it.
99

Name the recorded Inhibition of the item "CCCCCNC(=N)N/N=C/c1c[nH]c2ccc(OC)cc12.Cl" in your answer.
86

Check the records and state Inhibition for Cc1ccc(CC(C)NCC(O)c2cccc(C(F)(F)F)c2)cc1F.Cl (stereo not given)
97

Tell us which Inhibition value is on record for "CC[C@H]1CN2CC[C@H]1C[C@H]2[C@H](O)c1cc(-c2ccc(SC)cc2)nc2ccc(OC)cc12.Cl"
98

Return Inhibition for the following molecule: Cc1[nH]c2ccccc2c1C1=CCN(CCCCC23CCCc4cccc(c42)NC3=O)CC1 (stereo not given)
95

Please supply the value of reported Inhibition for the item "CNC(=O)c1ccc2[nH]cc(C3CCN(CC4CCN(C(=O)/C=C/c5ccc(Cl)c(Cl)c5)CC4)CC3)c2c1"
100

Answer with the recorded Inhibition for the molecule listed here: "CCC1=C[C@@H]2CN(C1)Cc1c([nH]c3ccccc13)[C@@](C(=O)OC)(c1cc3c(cc1OC)N(C)[C@H]1[C@@](O)(C(=O)OC)[C@H](O)[C@]4(CC)C=CCN5CC[C@]31[C@@H]54)C2.O=S(=O)(O)O"
98

Identify measured Inhibition corresponding to "CC(C)CNCc1cccc(-c2cccc(CN(C(=O)NC3CCCCC3)C3CCN(Cc4ccccc4)CC3)c2)c1.O=C(O)C(F)(F)F"
97
